- tested.system: T1, cynomolgus soluble urokinase plasminogen activator receptor (cynomolgus suPAR) (cynomolgus, UniProt Q9GK78 23-303, limits assumed)
- T1 construct: also called cynomolgus uPAR; cynoPLAUR-His
- T1 sequence (Q9GK78 23-303 limits assumed): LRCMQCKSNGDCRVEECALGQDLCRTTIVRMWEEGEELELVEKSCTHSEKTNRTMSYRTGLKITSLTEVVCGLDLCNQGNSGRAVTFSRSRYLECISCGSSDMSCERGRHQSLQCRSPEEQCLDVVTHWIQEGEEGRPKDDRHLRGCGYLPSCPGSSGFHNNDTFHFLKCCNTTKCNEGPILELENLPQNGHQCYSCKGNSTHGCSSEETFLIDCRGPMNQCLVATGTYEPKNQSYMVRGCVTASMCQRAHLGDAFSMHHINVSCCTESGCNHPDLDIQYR
- run.description: BLI (Octet) off-rate screen of scFv
readout.label: koff (s⁻¹)

{"binder": "suPAR_DB02_A03 (scFv, V domains shown, Screened as scFv) VH: QVQLVQSGAEVKKPGASVKVSCKASGYTFTDYYIHWVRQAPGQGLEWMGWIDPENGNTIYAQKFQGRVTMTRDTSTSTVYMELSSLRSEDTAVYYCARGYDVDWFVYWGQGTLVTVSS VL: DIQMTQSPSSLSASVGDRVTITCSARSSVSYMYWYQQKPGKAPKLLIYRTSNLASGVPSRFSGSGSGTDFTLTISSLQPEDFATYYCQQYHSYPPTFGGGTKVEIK", "unit.info": "s⁻¹", "reported": 0.000341}
{"binder": "suPAR_DB01_H06 (scFv, V domains shown, Screened as scFv) VH: QVQLVQSGAEVKKPGASVKVSCKASGFNIKDYYMHWVRQAPGQGLEWMGWIDPENGNTIYDQKFQGRVTMTRDTSTSTVYMELSSLRSEDTAVYYCARGYDVDWFVYWGQGTLVTVSS VL: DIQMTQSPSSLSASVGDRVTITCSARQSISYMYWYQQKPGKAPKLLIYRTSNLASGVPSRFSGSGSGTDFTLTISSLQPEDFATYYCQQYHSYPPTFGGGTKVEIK", "unit.info": "s⁻¹", "reported": 0.000129}
{"binder": "suPAR_DB02_A11 (scFv, V domains shown, Screened as scFv) VH: QVQLVQSGAEVKKPGASVKVSCKASGGTFSSYYMHWVRQAPGQGLEWMGWIDPSNGNTIYDQKFQGRVTMTRDTSTSTVYMELSSLRSEDTAVYYCARGYDVDWFVYWGQGTLVTVSS VL: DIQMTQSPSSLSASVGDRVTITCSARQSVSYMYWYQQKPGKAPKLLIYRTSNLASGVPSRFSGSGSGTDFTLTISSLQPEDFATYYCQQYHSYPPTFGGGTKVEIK", "unit.info": "s⁻¹", "reported": 0.000232}
{"binder": "suPAR_DB02_A12 (scFv, V domains shown, Screened as scFv) VH: QVQLVQSGAEVKKPGASVKVSCKASGYTFTNYYMHWVRQAPGQGLEWMGWIDHENGSTIYAQKFQGRVTMTRDTSTSTVYMELSSLRSEDTAVYYCARGYDMDWFVYWGQGTLVTVSS VL: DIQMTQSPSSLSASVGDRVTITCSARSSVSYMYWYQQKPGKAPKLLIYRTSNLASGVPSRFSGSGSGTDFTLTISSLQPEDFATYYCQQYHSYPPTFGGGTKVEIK", "unit.info": "s⁻¹", "reported": "2.26e-05"}
{"binder": "suPAR_DB01_F03 (scFv, V domains shown, Screened as scFv) VH: QVQLVQSGAEVKKPGASVKVSCKASGYTFTSYYMHWVRQAPGQGLEWMGWIDHENGNTIYDQKFQGRVTMTRDTSTSTVYMELSSLRSEDTAVYYCARGYDVDWFVYWGQGTLVTVSS VL: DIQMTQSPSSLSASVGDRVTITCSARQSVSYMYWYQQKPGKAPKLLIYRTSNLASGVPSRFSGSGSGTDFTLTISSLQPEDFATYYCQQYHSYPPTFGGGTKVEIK", "unit.info": "s⁻¹", "reported": "6.17e-07"}
{"binder": "suPAR_DB01_H03 (scFv, V domains shown, Screened as scFv) VH: QVQLVQSGAEVKKPGASVKVSCKASGDTITNYYMHWVRQAPGQGLEWMGWIDTNSGGTQYAQKFQGRVTMTRDTSTSTVYMELSSLRSEDTAVYYCARGYDVDWFVYWGQGTLVTVSS VL: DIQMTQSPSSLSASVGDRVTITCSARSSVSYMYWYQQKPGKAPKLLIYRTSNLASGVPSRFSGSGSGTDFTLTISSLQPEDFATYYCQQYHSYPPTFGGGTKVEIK", "unit.info": "s⁻¹", "reported": 0.000677}
{"binder": "suPAR_DB02_B07 (scFv, V domains shown, Screened as scFv) VH: QVQLVQSGAEVKKPGASVKVSCKASGHTFSSYYMHWVRQAPGQGLEWMGWIDPENGNTIYAQKFQGRVTMTRDTSTSTVYMELSSLRSEDTAVYYCARGYDVDWFVYWGQGTLVTVSS VL: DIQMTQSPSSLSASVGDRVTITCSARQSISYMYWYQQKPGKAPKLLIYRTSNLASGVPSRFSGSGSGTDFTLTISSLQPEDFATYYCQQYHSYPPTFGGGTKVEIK", "unit.info": "s⁻¹", "reported": "8.12e-05"}
{"binder": "suPAR_DB02_B04 (scFv, V domains shown, Screened as scFv) VH: QVQLVQSGAEVKKPGASVKVSCKASGYTFTGHYMHWVRQAPGQGLEWMGWIDHENGNTIYDQKFQGRVTMTRDTSTSTVYMELSSLRSEDTAVYYCARGYDVDWFVYWGQGTLVTVSS VL: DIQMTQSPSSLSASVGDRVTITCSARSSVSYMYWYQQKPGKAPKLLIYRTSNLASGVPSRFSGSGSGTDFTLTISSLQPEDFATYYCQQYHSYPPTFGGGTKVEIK", "unit.info": "s⁻¹", "reported": 0.000185}
{"binder": "suPAR_DB01_H08 (scFv, V domains shown, Screened as scFv) VH: QVQLVQSGAEVKKPGASVKVSCKASGFNIKDYYIHWVRQAPGQGLEWMGWIDPNGGGTQYAQKFQGRVTMTRDTSTSTVYMELSSLRSEDTAVYYCARGYDVDWFVYWGQGTLVTVSS VL: DIQMTQSPSSLSASVGDRVTITCRASSSVSYMYWYQQKPGKAPKLLIYRTSNLQSGVPSRFSGSGSGTDFTLTISSLQPEDFATYYCQQYHSYPPTFGGGTKVEIK", "unit.info": "s⁻¹", "reported": 0.00038}
{"binder": "suPAR_DB01_F02 (scFv, V domains shown, Screened as scFv) VH: QVQLVQSGAEVKKPGASVKVSCKASGYTFTNYYVHWVRQAPGQGLEWMGWIDHENGNTIYDQKFQGRVTMTRDTSTSTVYMELSSLRSEDTAVYYCARGYDVDWFVYWGQGTLVTVSS VL: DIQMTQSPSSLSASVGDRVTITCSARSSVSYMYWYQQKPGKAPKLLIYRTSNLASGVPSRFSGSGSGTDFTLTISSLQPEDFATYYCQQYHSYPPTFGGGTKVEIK", "unit.info": "s⁻¹", "reported": "9.84e-05"}
{"binder": "suPAR_DB02_B08 (scFv, V domains shown, Screened as scFv) VH: QVQLVQSGAEVKKPGASVKVSCKASGYSFTNYYMHWVRQAPGQGLEWMGWIDHENGSTSYDQKFQGRVTMTRDTSTSTVYMELSSLRSEDTAVYYCARGYDVDWFVYWGQGTLVTVSS VL: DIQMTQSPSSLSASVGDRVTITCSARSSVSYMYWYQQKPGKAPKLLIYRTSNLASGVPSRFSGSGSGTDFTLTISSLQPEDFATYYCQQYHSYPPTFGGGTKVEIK", "unit.info": "s⁻¹", "reported": "8.61e-05"}
